System: CCR-3 (Homo sapiens)
Protocol notes: Calcium mobilization assay (inhibition of eotaxin-induced intracellular calcium mobilization in CCR3/HEK293 cells)
Format: cell-based
Parameters: expressed in transfected cells
Particulars: 1.25 µg/ml test compound; eotaxin 10 nM; CCR3/HEK293 cells (Table 2b)
Decision: Ca^2+ mobilization 1.25 µg/ml (inhibition %) >= 70% yields Y, all other cases yield N.

Compound: C=C(C)C[N+](CC)(CCCNC(=O)Nc1ccc(OC)cc1)CCc1cccc(Cl)c1.[I-] (centres unmarked) [compound 445]
Cat: N
//
Compound: C=C(C)C[N+](CC)(CCCNC(=O)Nc1ccc(C#N)cc1)CCc1ccc(Cl)c(Cl)c1.[I-] (centres unmarked) [compound 401]
Cat: N
//
Compound: CC[N+](CCCNC(=O)Nc1ccc(Cl)c(Cl)c1)(CCc1ccc(Cl)c(Cl)c1)CC1CCC1.[I-] (centres unmarked) [compound 363]
Cat: N
//
Compound: CC[N+](CCCNC(=O)Nc1ccc(C#N)cc1)(CCOCCOC)CCc1cccc(Cl)c1.[I-] (centres unmarked) [Compound 394]
Cat: Y
//
Compound: C=C(C)C[N+](CC)(CCCNC(=O)Nc1ccc(OC)cc1)CCc1ccc(Cl)cc1Cl.[I-] (centres unmarked) [compound 446]
Cat: Y
//
Compound: C=C(C)C[N+](CC)(CCCNC(=O)Nc1ccc(Cl)c(Cl)c1)CCc1ccc(Cl)cc1.[I-] (centres unmarked) [compound 364]
Cat: N
//
Compound: CC[N+](CCCNC(=O)Nc1ccc(OC)cc1)(CCc1ccc(Cl)c(Cl)c1)CCC(C)C.[I-] (centres unmarked) [compound 436]
Cat: N
//
Compound: CC[N+](CCCNC(=O)Nc1ccc(Cl)c(Cl)c1)(CCOCCOC)CCc1ccc(Cl)cc1.[I-] (centres unmarked) [compound 355]
Cat: N

====

System: CCR-3 (Homo sapiens, UniProt P51677)
Protocol notes: Eotaxin-induced chemotaxis of CCR-3 transfectant cells (CCR3/U937)
Type: cell-based
Set-up: expressed in transfected cells; host or cells: U937
Particulars: 10 µM test compound; eotaxin 1 x 10^-9 M; CCR3/U937 cells (Table 3a)
Rule: Criterion met for Chemotaxis Assay 10 µM (inhibition %) not less than 70%, Criterion not met for anything less.

Molecule: CCN(CCCNC(=O)Nc1ccccc1)CCc1ccccc1
Cat: Criterion met
//
Molecule: COC(=O)CCCN(CCCNC(=O)Nc1ccc(Br)cc1)Cc1ccccc1
Cat: Criterion met
//
Molecule: COC(=O)CCCN(CCCNC(=O)Nc1ccc(Br)cc1)C(Cc1ccccc1)c1ccccc1 (stereo not drawn)
Cat: Criterion not met
//
Molecule: O=C(O)CCCN(CCCNC(=O)Nc1ccc(Br)cc1)CCC(c1ccccc1)c1ccccc1
Cat: Criterion not met
//
Molecule: CCC(c1ccccc1)N(CCCNC(=O)Nc1ccc(Br)cc1)CCCC(=O)O (stereo not drawn)
Cat: Criterion met
//
Molecule: Cc1ccc(C(C)N(CCCNC(=O)Nc2ccc(Br)cc2)CCCC(=O)O)cc1 (stereo not drawn)
Cat: Criterion met
//
Molecule: N#Cc1ccc(CN(CCCNC(=O)Nc2ccccc2)CCc2ccc(Cl)cc2)cc1 [Compound 16]
Cat: Criterion not met
//
Molecule: CS(=O)(=O)NC(=O)CCCN(CCCNC(=O)Nc1ccc(Br)cc1)C1CCCc2ccccc21 (stereo not drawn)
Cat: Criterion met

====

System: CCR-3 (Homo sapiens)
Sequence (P51677 1-355): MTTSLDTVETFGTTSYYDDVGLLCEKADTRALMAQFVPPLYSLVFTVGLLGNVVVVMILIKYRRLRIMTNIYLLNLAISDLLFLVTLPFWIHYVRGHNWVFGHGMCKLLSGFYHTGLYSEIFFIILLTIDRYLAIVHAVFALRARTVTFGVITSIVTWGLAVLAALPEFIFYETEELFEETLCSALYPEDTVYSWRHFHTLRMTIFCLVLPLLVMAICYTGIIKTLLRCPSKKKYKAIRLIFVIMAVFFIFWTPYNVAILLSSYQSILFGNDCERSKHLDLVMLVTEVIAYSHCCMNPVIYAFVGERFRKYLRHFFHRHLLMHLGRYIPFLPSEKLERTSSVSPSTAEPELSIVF
Protocol notes: Eotaxin-induced chemotaxis of CCR-3 transfectant cells (CCR3/U937)
Type: cell-based
Parameters: expressed in transfected cells; host or cells: U937
Particulars: U-937; 10 µM test compound; eotaxin 1 x 10^-9 M; CCR3/U937 cells (Table 3a)
// reported inhibition at 10 µM per item

Compound: CC(c1ccc(Cl)cc1)N(CCCNC(=O)Nc1ccc(Br)cc1)CCCC(=O)O (stereo not drawn) [Compound 272]
inhibition at 10 µM [%]: 89

Compound: C[C@H](c1ccc(Br)cc1)N(CCCNC(=O)Nc1ccc(Br)cc1)CCCC(=O)O [Compound 258]
inhibition at 10 µM [%]: 100

Compound: Cc1ccc(NC(=O)NCCCN(CCCC(=O)O)C2CCCc3ccccc32)cc1 (stereo not drawn) [Compound 64]
inhibition at 10 µM [%]: 100

Compound: CCN(CCCNC(=O)Nc1ccc(Cl)cc1)CCc1ccc(Cl)cc1 [Compound 6]
inhibition at 10 µM [%]: 100

Compound: CN(CCCNC(=O)Nc1ccccc1)CCc1ccc(Cl)cc1 [Compound 27]
inhibition at 10 µM [%]: 97

Compound: O=C(NCCCN(CCc1ccc(Cl)cc1)Cc1cnc2ccccc2c1)Nc1ccccc1 [Compound 20]
inhibition at 10 µM [%]: 26

Compound: CC(C)(C)c1ccc(CN(CCCNC(=O)Nc2ccccc2)CCc2ccc(Cl)cc2)cc1 [Compound 19]
inhibition at 10 µM [%]: 47

Compound: C[C@H](c1ccccc1)N(CCCNC(=O)Nc1ccc(Br)cc1)CCCC(=O)O [Compound 61]
inhibition at 10 µM [%]: 100

Compound: O=C(NCCCN(CCc1ccc(Cl)cc1)Cc1ccc(Cl)cc1)Nc1ccccc1 [Compound 17]
inhibition at 10 µM [%]: 51

====

System: CCR-3 (Homo sapiens)
Sequence (P51677 1-355): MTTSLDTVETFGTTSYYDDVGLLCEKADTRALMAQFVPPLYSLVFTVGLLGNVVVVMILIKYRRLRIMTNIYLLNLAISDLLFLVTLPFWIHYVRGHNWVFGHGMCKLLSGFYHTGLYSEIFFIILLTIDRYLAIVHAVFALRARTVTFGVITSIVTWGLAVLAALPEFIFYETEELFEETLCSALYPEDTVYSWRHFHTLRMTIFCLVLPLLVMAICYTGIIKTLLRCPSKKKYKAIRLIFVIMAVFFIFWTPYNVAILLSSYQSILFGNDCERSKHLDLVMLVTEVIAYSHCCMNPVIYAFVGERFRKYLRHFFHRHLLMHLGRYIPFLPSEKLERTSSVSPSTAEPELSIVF
Protocol notes: Eotaxin-induced chemotaxis of CCR-3 transfectant cells (CCR3/U937)
Assay type: cell-based
Design: expressed in transfected cells; host or cells: U937
Particulars: 10 µM test compound; eotaxin 1 x 10^-9 M; CCR3/U937 cells (Table 3a)

Compound: O=C(O)CCCN(CCCNC(=O)Nc1ccc(Br)cc1)Cc1ccc2c(c1)OCO2 [Compound 70]
Chemotaxis Assay 10 µM (inhibition %): 89%
--
Compound: O=C(NCCCN(CCCCCO)C1CCCc2ccccc21)Nc1ccc(Br)cc1 (stereo not shown) [Compound 205]
Chemotaxis Assay 10 µM (inhibition %): 97%
--
Compound: O=C(O)CCCCN(CCCNC(=O)Nc1ccc(Br)cc1)C1CCCc2ccccc21 (stereo not shown) [Compound 214]
Chemotaxis Assay 10 µM (inhibition %): 99%
--
Compound: CCOC(=O)c1cccc(NC(=O)NCCCN(CCCC(=O)O)C2CCCc3ccccc32)c1 (stereo not shown) [Compound 236]
Chemotaxis Assay 10 µM (inhibition %): 97%

====

System: CCR-3 (Homo sapiens)
Protocol notes: Calcium mobilization assay (inhibition of eotaxin-induced intracellular calcium mobilization in CCR3/HEK293 cells)
Format: cell-based
Set-up: expressed in transfected cells
Particulars: 6.25 µg/ml test compound; eotaxin 10 nM; CCR3/HEK293 cells (Table 2a)
Experimental endpoint: Ca^2+ mobilization 6.25 µg/ml (inhibition %)

Compound: COc1ccc(NC(=O)NCCCN(CCCSC)CCc2ccc(Cl)c(Cl)c2)c(OC)c1
Readout units: %
Meas value: 50
//
Compound: CC(C)CN(CCCNC(=O)Nc1ccc(Cl)c(C(F)(F)F)c1)CCc1ccccc1
Readout units: %
Meas value: 55
//
Compound: O=C(NCCCN(CCc1ccccc1)CCc1c[nH]cn1)Nc1ccc(Br)cc1
Readout units: %
Meas value: 57
//
Compound: CC(C)CN(CCCNC(=O)Nc1ccccc1-c1ccccc1)CCC(c1ccccc1)c1ccccc1
Readout units: %
Meas value: 55
//
Compound: COc1ccc(CCN(CCCNC(=O)Nc2ccccc2-c2ccccc2)CC(C)C)cc1OC
Readout units: %
Meas value: 61
//
Compound: CC(C)CN(CCCNC(=O)Nc1ccc(Br)cc1)Cc1ccc(C(F)(F)F)cc1
Readout units: %
Meas value: 50
//
Compound: O=C(NCCCN(C[C@@H]1CCCN1)C1CCCc2ccccc21)Nc1ccccc1-c1ccccc1 (some centres unmarked)
Readout units: %
Meas value: 51
//
Compound: COc1ccc(CCN(CCCNC(=O)Nc2cccc(C)c2)CCCSC)cc1OC
Readout units: %
Meas value: 65
//
Compound: CCN(CCCNC(=O)Nc1cccc(C)c1)CCc1ccccc1
Readout units: %
Meas value: 50
//
Compound: CCOC(=O)C1CC1CN(CCCNC(=O)Nc1cccc(Cl)c1)CCc1ccc(C)cc1 (centres unmarked)
Readout units: %
Meas value: 59
//
Compound: O=C(NCCCN(CCc1ccccc1)CCc1ccc(Cl)c(Cl)c1)Nc1ccccc1-c1ccccc1
Readout units: %
Meas value: 51
//
Compound: O=C(NCCCN(CCOCc1ccccc1)Cc1ccc2c(c1)OCO2)Nc1ccc(Br)cc1
Readout units: %
Meas value: 59
//
Compound: O=C(NCCCN(CCc1ccc(Cl)c(Cl)c1)CC1CCCCC1)Nc1cccc(Cl)c1
Readout units: %
Meas value: 55
//
Compound: COc1ccc(CCN(CCCNC(=O)Nc2ccc(Cl)c(C(F)(F)F)c2)CC(C)C)cc1OC
Readout units: %
Meas value: 53
//
Compound: CCOC(=O)C1CC1CN(CCCNC(=O)Nc1cccc(Cl)c1)Cc1cccs1 (centres unmarked)
Readout units: %
Meas value: 52
//
Compound: CCOC(=O)C1CC1CN(CCCNC(=O)Nc1cccc(Cl)c1)CCc1ccc(Cl)c(Cl)c1 (centres unmarked)
Readout units: %
Meas value: 69
//
Compound: O=C(O)CCCN(CCCNC(=O)Nc1ccccc1-c1ccccc1)Cc1ccc2c(c1)OCO2
Readout units: %
Meas value: 63
